- Test system: A549-CANX-COX4
- assayInfo: phenotypically active (imaging signature differs from DMSO and reproducible) at any of 0.3-9 uM (binary (1 = active, 0 = inactive)); higher = active
- runParameters: treatment time: 24 h
Classes used: active, inactive

1. Cc1c(CN2CCN(C(=O)[C@H](C)O)CC2)sc2c(N3CCOCC3)nc(-c3cnc(N)nc3)nc12    active
2. C#Cc1cccc(Nc2ncnc3cc(OCCOC)c(OCCOC)cc23)c1    active
3. Cn1cc(CCn2cnc(-c3cnn(C)c3)c2-c2ccc(C#N)cc2)cn1    inactive
4. O=C(CCCCCCC(=O)Nc1ccc([C@H]2O[C@@H](CSc3nc(-c4ccccc4)c(-c4ccccc4)o3)C[C@@H](c3ccc(CO)cc3)O2)cc1)NO    inactive
5. O=C(Nc1ccc(-c2ccnc(Nc3ccc(N4CCOCC4)cc3)n2)cc1)[C@@H]1CCCN1    active
6. O=S(=O)(c1cccc2cnccc12)N1CCCNCC1    inactive
7. Cc1nc(NC(=O)N2CCC[C@H]2C(N)=O)sc1-c1ccnc(C(C)(C)C(F)(F)F)c1    active
8. Cc1n[nH]c2ccc(-c3cncc(OC[C@@H](N)Cc4ccccc4)c3)cc12    active
9. NNCCc1ccccc1    inactive
10. COCCCOc1ccnc(CS(=O)c2nc3ccccc3[nH]2)c1C (stereo not drawn)    inactive
11. Cc1ccnn1-c1ccc(C(=O)N2CCN(S(=O)(=O)c3ccc(Cl)c(C(F)(F)F)c3)CC2)cc1    inactive
12. COc1c2occc2cc2ccc(=O)oc12    inactive
13. CC(=O)Nc1ccc(C(=O)Nc2ccccc2N)cc1    active
14. COc1ccc2[nH]c(S(=O)Cc3ncc(C)c(OC)c3C)nc2c1 (stereo not drawn)    inactive
15. CCN(c1ccccc1)c1cc(NC)[n+](C)c(C)n1    inactive
16. CC(C)[C@H]1CC[C@H](C(=O)N[C@H](Cc2ccccc2)C(=O)O)CC1 [nateglinide]    inactive
17. N=C(N)NC(=O)Cc1c(Cl)cccc1Cl    inactive
18. NCC[C@H](O)C(=O)N[C@H]1C[C@@H](N)[C@H](O[C@H]2O[C@H](CN)[C@@H](O)[C@H](O)[C@H]2O)[C@@H](O)[C@@H]1O[C@H]1O[C@H](CO)[C@@H](O)[C@H](N)[C@H]1O [Amikacin hydrate]    inactive

* * *

- Tested on: A549-GM130-SQSTM1
- assayInfo: phenotypically active (imaging signature differs from DMSO and reproducible) at any of 0.3-9 uM (binary (1 = active, 0 = inactive)); higher = active
- runParameters: treatment time: 24 h
Where a name gives a salt, the structure may show the parent alone.
Labels: TRUE = active, FALSE = inactive

1) CCOC(=O)[C@H](CCc1ccccc1)N[C@@H](C)C(=O)N1Cc2ccccc2C[C@H]1C(=O)O    FALSE
2) CCCCCCCN(CC)CCCC(O)c1ccc(NS(C)(=O)=O)cc1 (stereo not drawn) [ibutilide]    FALSE
3) COc1cc(OC)c2cc(-c3ccncc3)cnc2c1 [DMPQ dihydrochloride]    TRUE
4) CCCc1cc(C)n(C)c(=O)c1CN(C)C(=O)c1cc(-c2ccc(N3CCN(C(C)C)CC3)nc2)cc2c1cnn2C(C)C    TRUE
5) C#C[C@]1(O)CC[C@H]2[C@@H]3CCc4cc(OC)ccc4[C@H]3CC[C@@]21C    FALSE
6) CC[N+](CC)(CC)CCC(O)(c1ccccc1)C1CCCCC1 (stereo not drawn)    FALSE
7) CNC1CCC2(C)C(=CCC3C2CCC24CN(C)C(C)C2CCC34)C1 (stereo not drawn)    TRUE
8) Cn1cnc2c(NCc3ccccc3)nc(NCCO)nc21    FALSE
9) Cc1ccc(S(=O)(=O)c2ccc([N+](=O)[O-])o2)cc1    TRUE
10) NS(=O)(=O)c1cc2c(cc1C(F)(F)F)NC(Cc1ccccc1)NS2(=O)=O (stereo not drawn) [bendroflumethiazide]    FALSE
11) Cc1cc(CS(=O)(=O)c2ccccc2)cc(OCc2ccc(CN3CCC[C@@H]3CO)cc2)c1 [PF 543 hydrochloride]    TRUE
12) CC(C)[C@@H](C)/C=C/[C@@H](C)[C@H]1CC[C@H]2C3=CC=C4C[C@@H](O)CC[C@]4(C)[C@H]3CC[C@]12C    TRUE
13) Nc1cc(-c2ccncc2)c[nH]c1=O    FALSE
14) COc1ccc(C(=O)C2CCN(CC(=O)N(Cc3nc4c(c(=O)[nH]3)COCC4)CC3CC3)CC2)cc1    FALSE
15) O=C(O)CCCc1ccccc1 [Sodium 4-Phenylbutyrate]    FALSE
16) N#Cc1cccc(-c2c[nH]c3ncnc(N4CCOCC4)c23)c1    TRUE
17) Cc1c(C)c2c(c(C)c1O)CC[C@@](C)(CCC[C@H](C)CCC[C@H](C)CCCC(C)C)O2 [Tocopherol (R,S)]    FALSE
18) Cc1ccc(/C(=C/CN2CCCC2)c2cccc(/C=C/C(=O)O)n2)cc1    TRUE

* * *

- Test system: WPMY1-TP53BP1-CLTA
- assayInfo: phenotypically active (imaging signature differs from DMSO and reproducible) at any of 0.3-9 uM (binary (1 = active, 0 = inactive)); higher = active
- runParameters: treatment time: 24 h
Where a name gives a salt, the structure may show the parent alone.
reportedProperty: phenotypically active

1) Cc1cc2sc(NC(=O)Cc3ccccc3)nc2cc1Cl    0
2) CS(=O)(=O)c1ccc(-c2nnc(/C=C/c3nnc(-c4ccc(C#N)cc4)o3)n2-c2ccccc2Cl)nc1    1
3) O=C(NCC1CCCCN1)c1cc(OCC(F)(F)F)ccc1OCC(F)(F)F (stereo not given) [flecainide]    0
4) CCCCc1oc2ccc(NS(C)(=O)=O)cc2c1C(=O)c1ccc(OCCCN(CCCC)CCCC)cc1 [dronedarone]    1
5) Cc1ncc(-c2ccnc(Nc3ccc(S(C)(=O)=O)cc3)n2)n1C(C)C    1
6) CCN(CC)CCOC(=O)C1(C2CCCCC2)CCCCC1 [dicycloverine]    0
7) O=C(Cc1ccc(-c2ccc(OCCN3CCOCC3)cc2)cn1)NCc1ccccc1    1
8) CCCC1(CCC)CCC2(CCN(CCCN(CC)CC)C2)CC1 [Atiprimod dihydrochloride]    1
9) N[C@@H](C(=O)O)c1ccc(C(=O)O)c(C(=O)O)c1    0
10) CNC(=O)COC(=O)NCCC1CCN(c2cccc(C)n2)CC1    0

* * *

# Lookup of reported lowest phenotypically active concentration keyed by entry
- System: HepG2-TUBA1B-RELA
- assayInfo: lowest phenotypically active concentration; higher = less potent
- runParameters: treatment time: 24 h
reportedProperty: lowest phenotypically active concentration

1) Cc1ccc(NC(=O)c2cccc(C(C)(C)C#N)c2)cc1Nc1ccc2ncn(C)c(=O)c2c1    ≤ 0.3 µM
2) O=C1Cc2cc(CCN3CCN(c4nsc5ccccc45)CC3)c(Cl)cc2N1    3 µM
3) CC(C)c1cc(-c2n[nH]c(=O)n2-c2ccc3c(ccn3C)c2)c(O)cc1O    ≤ 0.3 µM
4) O=C(CCCCSc1nc(-c2ccc(-c3ccccc3)cc2)cc(=O)[nH]1)NO    ≤ 0.3 µM
5) CN(C)CCCN1c2ccccc2Sc2ccc(C(F)(F)F)cc21    9 µM
6) CN(C)CC(=O)N1CCC[C@@H](n2nc(-c3ccc(Oc4ccccc4)cc3)c3c(N)ncnc32)C1    1 µM
7) Cn1cnc2c(F)c(Nc3ccc(Br)cc3Cl)c(C(=O)NOCCO)cc21    1 µM
8) COc1ccccc1-c1c[nH]c2ncc(-c3cncc(C(=O)N(C)C)c3)cc12    ≤ 0.3 µM
9) O=C1Cc2c([nH]c3ccc(Br)cc23)-c2ccccc2N1    1 µM

* * *

- Tested on: A549-CANX-COX4
- assayInfo: phenotypically active (imaging signature differs from DMSO and reproducible) at any of 0.3-9 uM (binary (1 = active, 0 = inactive)); higher = active
- runParameters: treatment time: 24 h
Counter-ions that a name gives are not always drawn.
Classes used: active, inactive

1) CC(CN1c2ccccc2Sc2ccccc21)N(C)C (stereo unspecified) [promethazine]    inactive
2) CC(C)[C@@H](C)/C=C/[C@@H](C)[C@H]1CC[C@H]2C3=CC=C4C[C@@H](O)CC[C@]4(C)[C@H]3CC[C@]12C [Ergosterine]    inactive
3) COc1cc2ncnc(Nc3cccc(Br)c3)c2cc1OC    active
4) CCN(CCO)CCCOc1ccc2c(Nc3cc(CC(=O)Nc4cccc(F)c4)n[nH]3)ncnc2c1 [barasertib-HQPA]    active
5) O=S(=O)(NCCCCCCc1ccccc1)c1cccc2c(Cl)cccc12    inactive
6) CCCCCCCCCCCCCCCC(=O)C(F)(F)F    inactive
7) NCCNS(=O)(=O)c1ccc(Cl)c2ccncc12 [CKI 7 dihydrochloride]    inactive
8) OC[C@H]1O[C@@H](Oc2ccc(O)cc2)[C@H](O)[C@@H](O)[C@@H]1O [Arbutin]    inactive
9) NC(=O)C(c1ccccc1)(c1ccccc1)[C@@H]1CCN(CCc2ccc3c(c2)CCO3)C1 [darifenacin]    inactive
10) Cc1ccc(NC(=O)CCCCCC(=O)Nc2ccccc2N)cc1    active
11) C[C@@H]1O[C@@H](OC[C@H]2O[C@@H](Oc3c(-c4ccc(O)c(O)c4)oc4cc(O)cc(O)c4c3=O)[C@H](O)[C@@H](O)[C@@H]2O)[C@H](O)[C@H](O)[C@H]1O [Quercétine-3-rutinoside]    inactive
12) CC(C)COCC(CN(Cc1ccccc1)c1ccccc1)N1CCCC1 (stereo unspecified) [bepridil]    inactive
13) Cc1ccc(NC(=O)c2cccc(N(C)C)c2)cc1NC(=O)c1ccc(O)cc1    inactive
14) CC(C(=O)O)c1ccc(C(=O)c2cccs2)cc1 (stereo unspecified) [suprofen]    inactive
15) C=C1CN(Cc2ccc(C(=O)Nc3ccccc3N)cc2)C(=O)c2ccccc21    active
16) CC#CC(=O)N1CCC[C@H]1c1nc(-c2ccc(C(=O)Nc3ccccn3)cc2)c2c(N)nccn12 [acalabrutinib]    inactive
17) COc1c(Cl)cc2c([nH]c3cnccc32)c1NC(=O)c1cccnc1C [ML 120B dihydrochloride]    active
18) FC(F)OC(F)C(F)(F)F (stereo unspecified) [desflurane]    inactive
19) Nc1cc(C(F)(F)F)c(-c2cc(N3CCOCC3)nc(N3CCOCC3)n2)cn1 [buparlisib]    active
20) O=C(CCCCCCC(=O)NO)NO    inactive
21) CN1CC(=O)N2[C@H](c3ccc4c(c3)OCO4)c3[nH]c4ccccc4c3C[C@@H]2C1=O [tadalafil]    inactive
22) CN(C)CCCNc1c2c(=O)n(C)c(=O)nc-2n(C)c2ccccc12    active
23) O=C(O)Cc1cccc(OCCCN(Cc2cccc(C(F)(F)F)c2Cl)CC(c2ccccc2)c2ccccc2)c1 [GW 3965 hydrochloride]    active
24) C=C[C@H]1[C@H](O[C@@H]2O[C@H](CO)[C@@H](O)[C@H](O)[C@H]2O)OC=C2C(=O)NCC[C@H]21 [Bakankosine]    inactive
25) CCN1CCN(c2ccc(Nc3cc(N(C)C(=O)Nc4c(Cl)c(OC)cc(OC)c4Cl)ncn3)cc2)CC1    inactive
26) C#CCN[C@@H]1CCc2ccccc21 [rasagiline]    inactive
27) OC[C@H]1NC[C@H](O)[C@@H](O)[C@@H]1O [1-Deoxynojirimycin]    inactive
28) O=C(/C=C/c1ccc2ccccc2n1)c1ccncc1    inactive
29) O=C1NCCN1CCN1CCC(c2cn(-c3ccc(F)cc3)c3ccc(Cl)cc23)CC1 [sertindole]    active
30) COc1cc(C(=O)NC2CCN(C)CC2)c(F)cc1Nc1ncc2c(n1)N(C1CCCC1)CC(F)(F)C(=O)N2C [TAK 960 hydrochloride]    active
31) C[C@@H]1C(=O)O[C@H]2C[C@@]34[C@H]5C[C@@H](C(C)(C)C)[C@]36[C@@H](OC(=O)[C@@H]6O)O[C@@]4(C(=O)O5)[C@]21O [Ginkgolide A]    inactive
32) CCCOc1ccc(CCc2nc3cc(-c4c(C)noc4C)ccc3n2CCN2CCOCC2)cc1    active
33) CNC[C@H](O)c1ccc(O)c(O)c1 [epinephrine]    inactive
34) CCOC(=O)C(C)(C)Oc1ccc(Cl)cc1 [Clofibrate]    inactive
35) Cc1ccc(O)c([C@H](CCN(C(C)C)C(C)C)c2ccccc2)c1 [Tolterodine L-tartrate]    inactive
36) CC(C)N(CCC(=O)c1ccc2ccccc2c1)Cc1ccccc1    inactive
